B1: library; numbered along this chain (parent)
chain: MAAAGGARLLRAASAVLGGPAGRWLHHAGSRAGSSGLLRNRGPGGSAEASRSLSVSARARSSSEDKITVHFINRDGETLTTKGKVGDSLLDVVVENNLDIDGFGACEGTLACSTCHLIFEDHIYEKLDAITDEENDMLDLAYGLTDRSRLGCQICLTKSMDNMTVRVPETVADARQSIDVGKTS

Variants of: B1
Test: scaled log2 fold change in cell abundance, elesclomol vs control (0 = silent mean, 1 = nonsense mean) (scaled log2 ratio); higher = higher viability under elesclomol (loss of FDX1 cuproptosis function);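 note: variant abundance is its share of total variant reads in each endpoint sample, from next-generation sequencing of the integrated ORF PCR-amplified out of genomic DNA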
Conditions: with ABC1 FDX1 KO; elesclomol 5 nM; glucose 10 mM; 14 days
Answer each item with its documented scaled log2 fold change.
A bare number is all that is needed in reply.

Lab book: scaled log2 fold change of "E120I" noted as -0.276

Lab note: measured scaled log2 fold change of "G33R" was -0.26

// field: scaled log2 fold change; key: "I130A" ; value = 0.429

// scaled log2 fold change lookup, variant = "A21P" , result: 0.0803

Entry "I154G" — recorded scaled log2 fold change = 1.1

scaled log2 fold change for "T109G" is 0.318

For record "V180R" the listed scaled log2 fold change is -0.02

So, "G42I" ? Its scaled log2 fold change was 0.277

variant "V167P" , scaled log2 fold change observed: 0.251

In plain terms, "G18K" has a documented scaled log2 fold change of 0.322

The measured scaled log2 fold change associated with "L98F" reads -0.0232

// sample "T109L" , its scaled log2 fold change was -0.315

The variant "T164M" showed scaled log2 fold change equal to -0.076

Notebook: "A13S" , scaled log2 fold change read as 0.157

Measured scaled log2 fold change, "L150A" : 0.335

Value of scaled log2 fold change reported for the variant "S30D" is 0.413

The recorded scaled log2 fold change for entry "A2S" equals -0.234

The variant "M160W" showed scaled log2 fold change equal to 0.366

scaled log2 fold change recorded for this variant, "R23K" , is 0.498

Data point: "L25V" ; scaled log2 fold change = 0.553

For "G83P" the variant record lists scaled log2 fold change as 0.126

response.value for "E64K" (field: scaled log2 fold change) = 0.278
